- Test system: PC-9
- test_method_notes: Antiproliferative activity against human PC-9 cells assessed as inhibition of cell growth measured after 72 by Cell titre-glo assay
- Assay type: functional, cell-based
endpoint_label: IC50

CC(C)CCCCC(=O)N[C@@H](CC(C)C)C(=O)N[C@H](CCCNC(=N)N)C(=O)N[C@@H]1C(=O)N[C@@H]([C@@H](C)C(C)C)C(=O)NCC(=O)N[C@@H]([C@H](C)C(C)C)C(=O)O[C@@H]1C: > 20 µM
CC(C)C[C@H](NC(=O)Cc1ccccc1)C(=O)N[C@H](CCCNC(=N)N)C(=O)N[C@@H]1C(=O)N[C@@H]([C@@H](C)C(C)C)C(=O)NCC(=O)N[C@@H]([C@H](C)C(C)C)C(=O)O[C@@H]1C: > 20 µM

Could you now consider this next compound?
Recorded IC50 for CC(C)CCC(=O)N[C@@H](CC(C)C)C(=O)N[C@H](CCCNC(=N)N)C(=O)N[C@@H]1C(=O)N[C@@H]([C@@H](C)C(C)C)C(=O)NCC(=O)N[C@@H]([C@H](C)C(C)C)C(=O)O[C@@H]1C with PC-9, please?
> 20 µM
